These measurements were taken from patent US8846719B2.

Molecular target: human GABA A receptor α5β3γ2 (Homo sapiens (Human), UniProt P18507+P31644)
Assay: [3H]flumazenil competition binding assay, human GABA A α5β3γ2 receptors expressed in HEK293 cells
Settings: human receptor; displacement of [3H]flumazenil (0.5 nM); means of two determinations; read-out: hKi GABAAa5
recorded metric: log10(Ki) (log10 of the value in nM)

INSERT INTO measurements (smiles_entry, recorded_metric, numeric_result) VALUES
  ('CC(C)NC(=O)c1ccc(OCc2conc2-c2ccc(Cl)cc2)nc1', 'log10(Ki)', 0.75),
  ('Cc1onc(-c2ccncc2)c1COc1ccc(C(=O)N2CCSCC2)cn1', 'log10(Ki)', 1.60),
  ('Cc1onc(-c2ccc(Cl)cn2)c1COc1ccc(C(=O)O)cn1', 'log10(Ki)', 0.58),
  ('Cc1onc(-c2ccc(F)cn2)c1COc1ccc(C(=O)NCCO)cn1', 'log10(Ki)', -0.40),
  ('CC(C)(C)OC(=O)N1CC(NC(=O)c2ccc(OCc3conc3-c3ccc(Cl)cc3)nc2)C1', 'log10(Ki)', 1.74),
  ('O=C(NCC(F)(F)F)c1ccc(OCc2conc2-c2ccc(F)cn2)nc1', 'log10(Ki)', 0.97),
  ('Cc1onc(-c2ccncc2)c1COc1ccc(C(=O)NC2CCOCC2)cn1', 'log10(Ki)', 0.75),
  ('Cc1onc(-c2ccccc2)c1COc1ccccn1', 'log10(Ki)', 1.56),
  ('Cc1onc(-c2ccccc2)c1COc1ccc(C(=O)NCCO)cn1', 'log10(Ki)', 0.41);

---

Target: human GABA A receptor α5β3γ2 (Homo sapiens (Human), UniProt P18507+P31644)
Experiment: [3H]flumazenil competition binding assay, human GABA A α5β3γ2 receptors expressed in HEK293 cells
Settings: human receptor; displacement of [3H]flumazenil (0.5 nM); means of two determinations; read-out: hKi GABAAa5
Items are presented alongside their recorded Ki.
recorded metric: Ki

INSERT INTO assay_data (smiles_entry, target_system, recorded_metric, result) VALUES
  ('C[C@@H](O)CNC(=O)c1ccc(OCc2conc2-c2ccc(F)cc2)nc1', 'human GABA A receptor α5β3γ2 (Homo sapiens (Human), UniProt P18507+P31644)', 'Ki', '9.5 nM'),
  ('Cc1onc(-c2ccc(Cl)cn2)c1COc1ccc(C(=O)NC2CC2)cn1', 'human GABA A receptor α5β3γ2 (Homo sapiens (Human), UniProt P18507+P31644)', 'Ki', '0.3 nM'),
  ('O=C(NCCO)c1ccc(OCc2conc2-c2ccc(Cl)cc2)nc1', 'human GABA A receptor α5β3γ2 (Homo sapiens (Human), UniProt P18507+P31644)', 'Ki', '10.9 nM'),
  ('Cc1onc(-c2cccc(F)c2)c1COc1ccc(C(=O)NC2CC2)cn1', 'human GABA A receptor α5β3γ2 (Homo sapiens (Human), UniProt P18507+P31644)', 'Ki', '41.3 nM'),
  ('CC(C)NC(=O)c1ccc(OCc2conc2-c2ccccc2)nc1', 'human GABA A receptor α5β3γ2 (Homo sapiens (Human), UniProt P18507+P31644)', 'Ki', '21.4 nM'),
  ('Cc1onc(-c2ccc(F)cn2)c1COc1ccc(C(=O)N2CCOCC2)cn1', 'human GABA A receptor α5β3γ2 (Homo sapiens (Human), UniProt P18507+P31644)', 'Ki', '4.1 nM'),
  ('Cc1onc(-c2cccc(F)c2)c1COc1ccc(C(=O)N2CCOCC2)cn1', 'human GABA A receptor α5β3γ2 (Homo sapiens (Human), UniProt P18507+P31644)', 'Ki', '48.1 nM'),
  ('Cc1onc(-c2ccccc2)c1COc1ccc(C(=O)N[C@H](CO)CC(C)C)cn1', 'human GABA A receptor α5β3γ2 (Homo sapiens (Human), UniProt P18507+P31644)', 'Ki', '10.9 nM'),
  ('O=C(NC1CCOCC1)c1ccc(OCc2conc2-c2ccccn2)nc1', 'human GABA A receptor α5β3γ2 (Homo sapiens (Human), UniProt P18507+P31644)', 'Ki', '17.8 nM'),
  ('CC(C)NC(=O)c1ccc(OCc2c(-c3ccc(F)cc3)noc2C(F)(F)F)nc1', 'human GABA A receptor α5β3γ2 (Homo sapiens (Human), UniProt P18507+P31644)', 'Ki', '33.5 nM'),
  ('C[C@H](CO)NC(=O)c1ccc(OCc2conc2-c2ccc(Cl)cc2)nc1', 'human GABA A receptor α5β3γ2 (Homo sapiens (Human), UniProt P18507+P31644)', 'Ki', '10.7 nM'),
  ('Cc1onc(-c2ccccc2)c1COc1ccc(C(=O)NC2(C#N)CC2)cn1', 'human GABA A receptor α5β3γ2 (Homo sapiens (Human), UniProt P18507+P31644)', 'Ki', '2.9 nM'),
  ('Cc1onc(-c2ccccc2F)c1COc1ccc(C(=O)NCC(F)(F)C(F)(F)F)cn1', 'human GABA A receptor α5β3γ2 (Homo sapiens (Human), UniProt P18507+P31644)', 'Ki', '9.8 nM'),
  ('Cc1onc(-c2ccccn2)c1COc1ccc(C(=O)NC(C)C)cn1', 'human GABA A receptor α5β3γ2 (Homo sapiens (Human), UniProt P18507+P31644)', 'Ki', '0.6 nM'),
  ('CNC(=O)c1ccc(OCc2c(-c3ccncn3)noc2C)nc1', 'human GABA A receptor α5β3γ2 (Homo sapiens (Human), UniProt P18507+P31644)', 'Ki', '4.8 nM'),
  ('Cc1onc(-c2ccccc2)c1COc1ccc(C(=O)N2CCC2)cn1', 'human GABA A receptor α5β3γ2 (Homo sapiens (Human), UniProt P18507+P31644)', 'Ki', '13.9 nM'),
  ('Cc1onc(-c2ccccc2)c1COc1ccc(C(=O)NC2CC2)cn1', 'human GABA A receptor α5β3γ2 (Homo sapiens (Human), UniProt P18507+P31644)', 'Ki', '2.7 nM'),
  ('Cc1cc(C(=O)NC2CCOCC2)cnc1OCc1c(-c2ccccc2)noc1C', 'human GABA A receptor α5β3γ2 (Homo sapiens (Human), UniProt P18507+P31644)', 'Ki', '1.4 nM');
